EXPERIMENT_SUMMARY: In vivo murine PK
TEST_SETTINGS: mouse, plasma, ip; CD1 mice, I.P., 10 mg/kg, mean
ASSAY_READOUT: bioavailability (%)
Give bare numbers, in %.

Please give the measured bioavailability for this molecule: Nc1n[nH]c2ccc(-c3ccnc4[nH]c(-c5ccnc(OCc6ccccc6)c5)cc34)cc12 [Compound 6g [SU1349]] 9.3

====

For each entry below, report its IC50 value.
Tested on: IKKβ-mediated p65 phosphorylation (Ser536) in U2OS cells
EXPERIMENT_SUMMARY: TNFα-stimulated p65 (Ser536) phosphorylation, Western blotting
Type: cell-based
TEST_SETTINGS: Homo sapiens, 1 h pre-treatment, TNFα 30 min
Answers are plain numbers, in µM.

Nc1n[nH]c2ccc(-c3ccnc4[nH]c(-c5ccccc5)cc34)cc12 [Compound 4]	0.3

Moving on to the next molecule.
Please give the measured IC50 for this molecule: Nc1n[nH]c2ccc(-c3ccnc4[nH]c(-c5cccc(OCc6ccccc6)c5)cc34)cc12 [Compound 5r [SU1261]] 5.64

====

TARGET_ENTITY: IKKβ (Homo sapiens, UniProt O14920)
Sequence (O14920 whole entry): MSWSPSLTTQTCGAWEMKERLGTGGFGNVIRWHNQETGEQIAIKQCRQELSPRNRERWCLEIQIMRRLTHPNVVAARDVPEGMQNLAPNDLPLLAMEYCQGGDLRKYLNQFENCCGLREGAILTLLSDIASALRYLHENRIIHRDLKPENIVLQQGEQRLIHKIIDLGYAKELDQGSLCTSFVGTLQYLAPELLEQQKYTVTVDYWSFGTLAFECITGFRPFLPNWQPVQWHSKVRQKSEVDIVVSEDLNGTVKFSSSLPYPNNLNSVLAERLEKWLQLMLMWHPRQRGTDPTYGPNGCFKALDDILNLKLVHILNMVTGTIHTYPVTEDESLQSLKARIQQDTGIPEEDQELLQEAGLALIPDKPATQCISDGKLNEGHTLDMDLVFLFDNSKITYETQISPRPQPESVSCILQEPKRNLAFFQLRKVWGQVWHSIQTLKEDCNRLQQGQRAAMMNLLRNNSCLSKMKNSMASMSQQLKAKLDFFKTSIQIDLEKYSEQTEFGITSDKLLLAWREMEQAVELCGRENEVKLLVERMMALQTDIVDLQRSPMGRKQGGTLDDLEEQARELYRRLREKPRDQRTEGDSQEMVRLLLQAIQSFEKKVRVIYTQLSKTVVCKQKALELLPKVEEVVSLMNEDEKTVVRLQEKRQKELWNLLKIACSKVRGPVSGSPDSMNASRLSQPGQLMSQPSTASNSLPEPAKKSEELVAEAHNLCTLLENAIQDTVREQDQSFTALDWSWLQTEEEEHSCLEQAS
EXPERIMENT_SUMMARY: DELFIA kinase assay, IKKβ
Format: biochemical
TEST_SETTINGS: read-out: Ki Values IKKβ
Procedure: IKKα and IKKβ inhibitory activity were determined using a dissociation-enhanced ligand fluorescent immunoassay (DELFIA) based on the protocol of HTScan™ IKKβ Kinase Assay (Cell Signaling Technology, Danvers, MA, USA) as described in [24].
For each entry below, report its Ki value.
Numbers only, in nM.

Example cases with answers are listed next.
Nc1n[nH]c2ccc(-c3ccnc4[nH]c(-c5cccc(OCc6ccccn6)c5)cc34)cc12	402
Cc1ccc(S(=O)(=O)Nc2ccc(-c3cc4c(-c5ccc6[nH]nc(N)c6c5)ccnc4[nH]3)cc2)cc1	67
Nc1n[nH]c2ccc(-c3ccnc4[nH]c(-c5ccnc(OCCc6ccccc6)c5)cc34)cc12	1600

Provide the reported Ki of each entry below, same order.
1. CS(=O)(=O)Nc1cccc(-c2cc3c(-c4ccc5[nH]nc(N)c5c4)ccnc3[nH]2)c1
2. Nc1cccc(-c2cc3c(-c4ccc5[nH]nc(N)c5c4)ccnc3[nH]2)c1
3. COc1ccc(COc2cccc(-c3cc4c(-c5ccc6[nH]nc(N)c6c5)ccnc4[nH]3)c2)cc1
4. Nc1n[nH]c2ccc(-c3ccnc4[nH]c5c(c34)CCCC5)cc12
5. Nc1n[nH]c2ccc(-c3ccnc4[nH]c(-c5ccc(OCc6ccccc6)cc5)cc34)cc12
6. CS(=O)(=O)c1cccc(-c2cc3c(-c4ccc5[nH]nc(N)c5c4)ccnc3[nH]2)c1
7. Nc1n[nH]c2ccc(-c3ccnc4[nH]c(-c5cc(F)cc(OCc6ccccc6)c5)cc34)cc12

109
28
166
77
189
36
5030

Provide the reported Ki of each entry below, same order.
1. CC(C)COc1cccc(-c2cc3c(-c4ccc5[nH]nc(N)c5c4)ccnc3[nH]2)c1
2. Nc1n[nH]c2ccc(-c3ccnc4[nH]c(-c5cc(O)cc(F)c5)cc34)cc12
3. Nc1n[nH]c2ccc(-c3ccnc4[nH]c(-c5cccc(CNC6CCCC6)c5)cc34)cc12
4. COCCNC(=O)c1cccc(-c2cc3c(-c4ccc5[nH]nc(N)c5c4)ccnc3[nH]2)c1

1. 458
2. 42
3. 191
4. 107

Provide the reported Ki of each entry below, same order.
1. Nc1n[nH]c2ccc(-c3ccnc4[nH]c(-c5cccc(OCCN6CCOCC6)c5)cc34)cc12
2. Nc1n[nH]c2ccc(-c3ccnc4[nH]c(-c5cc(F)nc(SCc6ccccc6)c5)cc34)cc12

[29, 3000]
